The reader will find reported Ki values listed item by item below.
Biological target: T1, purified Dvl2PDZ domain polypeptide (human, UniProt O14641 248-364)
T1 construct: range 248-364; As used in the fluorescence polarization assay; also called DvlPDZ domain
T1 sequence (looked up): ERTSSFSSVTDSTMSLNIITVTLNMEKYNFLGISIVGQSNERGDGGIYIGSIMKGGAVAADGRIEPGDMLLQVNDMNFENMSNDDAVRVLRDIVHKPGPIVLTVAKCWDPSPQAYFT
Assay: fluorescence polarization competition; 10 nM FAM-KWYGWL probe, 1 µM Dvl2PDZ

binder	Ki (nM)
Ac-GEIVLWSDIPG-NH2 (synthetic internal peptide ligand) [Peptide N3 (GEIVLWSDIPG)]	4620
Ac-GWKDYGWIDG-NH2 (synthetic internal peptide ligand) [Peptide N2 (GWKDYGWIDG)]	1210
Ac-KWYGWL-OH (synthetic peptide) [Peptide D1 (KWYGWL-COOH)]	725
